Listed next: entries and their corresponding inhibition at 10 µM.
Target: SRC (Homo sapiens, UniProt P12931)
Sequence (P12931 whole entry, species assumed): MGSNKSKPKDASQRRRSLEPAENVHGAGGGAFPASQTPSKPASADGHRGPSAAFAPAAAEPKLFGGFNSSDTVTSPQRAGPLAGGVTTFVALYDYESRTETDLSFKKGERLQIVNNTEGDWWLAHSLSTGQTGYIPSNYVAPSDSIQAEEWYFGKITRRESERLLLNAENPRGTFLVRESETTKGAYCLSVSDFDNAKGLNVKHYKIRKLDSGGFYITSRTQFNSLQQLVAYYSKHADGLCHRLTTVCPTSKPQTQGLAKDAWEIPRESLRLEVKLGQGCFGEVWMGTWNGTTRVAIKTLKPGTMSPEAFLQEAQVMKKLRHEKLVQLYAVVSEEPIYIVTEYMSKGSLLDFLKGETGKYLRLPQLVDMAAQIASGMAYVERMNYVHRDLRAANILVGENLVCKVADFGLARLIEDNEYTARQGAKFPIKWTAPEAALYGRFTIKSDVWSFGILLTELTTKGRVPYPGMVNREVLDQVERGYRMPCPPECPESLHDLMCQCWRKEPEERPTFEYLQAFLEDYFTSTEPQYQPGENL
Assay: FRET-based coupled-enzyme protein kinase inhibition assay
Assay type: biochemical
Conditions: compound at 10 µM, 1% DMSO
Your answer is read as %, so omit the unit and give the number.

Worked cases, inhibition at 10 µM given:
compound: Nc1ncnc2c1ncn2[C@@H]1O[C@H](COC(=O)N2CCC[C@H]2CO)[C@@H](O)[C@H]1O
measuredTarget: SRC (Homo sapiens, UniProt P12931)
inhibition at 10 µM (%): 16
//
compound: CN1CCN(CCNC(=O)OC[C@H]2O[C@@H](n3cnc4c(N)ncnc43)[C@H](O)[C@@H]2O)CC1
measuredTarget: SRC (Homo sapiens, UniProt P12931)
inhibition at 10 µM (%): 17
//
compound: CS(=O)(=O)N1CC2(CCN(C(=O)OC[C@H]3O[C@@H](n4cnc5c(N)ncnc54)[C@H](O)[C@@H]3O)CC2)c2ccccc21
measuredTarget: SRC (Homo sapiens, UniProt P12931)
inhibition at 10 µM (%): 58
//
compound: Nc1ncnc2c1ncn2[C@@H]1O[C@H](COC(=O)N2CCN(CCc3ccccc3)CC2)[C@@H](O)[C@H]1O
measuredTarget: SRC (Homo sapiens, UniProt P12931)
inhibition at 10 µM (%): 29

Identify measured inhibition at 10 µM corresponding to `Nc1ncnc2c1ncn2[C@@H]1O[C@H](COC(=O)N2CCN(C(=O)N3CCOCC3)CC2)[C@@H](O)[C@H]1O`
8

Identify measured inhibition at 10 µM corresponding to `N#CCCN1CCN(C(=O)OC[C@H]2O[C@@H](n3cnc4c(N)ncnc43)[C@H](O)[C@@H]2O)CC1`
8

Identify measured inhibition at 10 µM corresponding to `CN(C)CCNC(=O)OC[C@H]1O[C@@H](n2cnc3c(N)ncnc32)[C@H](O)[C@@H]1O`
17

Identify measured inhibition at 10 µM corresponding to `Nc1ncnc2c1ncn2[C@@H]1O[C@H](COC(=O)N[C@@H]2CCN(Cc3ccccc3)C2)[C@@H](O)[C@H]1O`
25

Identify measured inhibition at 10 µM corresponding to `Nc1ncnc2c1ncn2[C@@H]1O[C@H](COC(=O)NCCCc2nc3ccccc3[nH]2)[C@@H](O)[C@H]1O`
46

Identify measured inhibition at 10 µM corresponding to `Nc1ncnc2c1ncn2[C@@H]1O[C@H](COC(=O)NC[C@H](O)CO)[C@@H](O)[C@H]1O`
-13

Identify measured inhibition at 10 µM corresponding to Nc1ncnc2c1ncn2[C@@H]1O[C@H](COC(=O)N2CCN(Cc3ccccc3)CC2CO)[C@@H](O)[C@H]1O (stereo partly shown)
29

Identify measured inhibition at 10 µM corresponding to `CC(C)N1CCC(NC(=O)OC[C@H]2O[C@@H](n3cnc4c(N)ncnc43)[C@H](O)[C@@H]2O)CC1`
-1

Identify measured inhibition at 10 µM corresponding to `Nc1ncnc2c1ncn2[C@@H]1O[C@H](COC(=O)N2CCS(=O)(=O)CC2)[C@@H](O)[C@H]1O`
8

Identify measured inhibition at 10 µM corresponding to `Nc1ncnc2c1ncn2[C@@H]1O[C@H](COC(=O)NCCN2CCCC2=O)[C@@H](O)[C@H]1O`
12

Identify measured inhibition at 10 µM corresponding to Nc1ncnc2c1ncn2[C@@H]1O[C@H](COC(=O)N2CCC(Cc3ccc(F)cc3)C2)[C@@H](O)[C@H]1O (stereo partly shown)
38

Identify measured inhibition at 10 µM corresponding to `C[C@@H](NC(=O)OC[C@H]1O[C@@H](n2cnc3c(N)ncnc32)[C@H](O)[C@@H]1O)c1ccc(Cl)cc1`
33
